conditions: in isopropanol, 308.2 K
observation.type: solubility (mole fraction)

Challenge: Please give the documented solubility (mole fraction) of `COc1c(C)c2c(c(O)c1C/C=C(\C)CCC(=O)OCCN1CCOCC1)C(=O)OC2`
Response given: 0.0102

###

settings: in ethylene glycol, 303.2 K
observation.type: solubility (mole fraction)
I only need the number, thanks.

Challenge: Please give the documented solubility (mole fraction) of `COc1c(C)c2c(c(O)c1C/C=C(\C)CCC(=O)OCCN1CCOCC1)C(=O)OC2`
Response given: 0.000858

###

settings: in isopropanol, 298.2 K
observation.type: solubility (mole fraction)
I only need the number, thanks.

Challenge: Please give the documented solubility (mole fraction) of `COc1c(C)c2c(c(O)c1C/C=C(\C)CCC(=O)OCCN1CCOCC1)C(=O)OC2`
Response given: 0.00852

###

conditions: in ethylene glycol, 308.2 K
observation.type: solubility (mole fraction)
I only need the number, thanks.

Challenge: Please give the documented solubility (mole fraction) of `COc1c(C)c2c(c(O)c1C/C=C(\C)CCC(=O)OCCN1CCOCC1)C(=O)OC2`
Response given: 0.00103

###

conditions: in ethylene glycol, 313.2 K
observation.type: solubility (mole fraction)
I only need the number, thanks.

Challenge: Please give the documented solubility (mole fraction) of `COc1c(C)c2c(c(O)c1C/C=C(\C)CCC(=O)OCCN1CCOCC1)C(=O)OC2`
Response given: 0.0012

###

conditions: in DMSO, 318.2 K
observation.type: solubility (mole fraction)
I only need the number, thanks.

Challenge: Please give the documented solubility (mole fraction) of `COc1c(C)c2c(c(O)c1C/C=C(\C)CCC(=O)OCCN1CCOCC1)C(=O)OC2`
Response given: 0.0439

###

settings: in water, 308.2 K
observation.type: solubility (mole fraction)

Challenge: Please give the documented solubility (mole fraction) of `COc1c(C)c2c(c(O)c1C/C=C(\C)CCC(=O)OCCN1CCOCC1)C(=O)OC2`
Response given: 2.87e-06

###

details: in ethanol, 308.2 K
observation.type: solubility (mole fraction)

Challenge: Please give the documented solubility (mole fraction) of `COc1c(C)c2c(c(O)c1C/C=C(\C)CCC(=O)OCCN1CCOCC1)C(=O)OC2`
Response given: 0.00749

###

conditions: in DMSO, 308.2 K
observation.type: solubility (mole fraction)
I only need the number, thanks.

Challenge: Please give the documented solubility (mole fraction) of `COc1c(C)c2c(c(O)c1C/C=C(\C)CCC(=O)OCCN1CCOCC1)C(=O)OC2`
Response given: 0.0328

###

settings: in DMSO, 303.2 K
observation.type: solubility (mole fraction)
I only need the number, thanks.

Challenge: Please give the documented solubility (mole fraction) of `COc1c(C)c2c(c(O)c1C/C=C(\C)CCC(=O)OCCN1CCOCC1)C(=O)OC2`
Response given: 0.0272

###

details: in PEG-400, 298.2 K
observation.type: solubility (mole fraction)
I only need the number, thanks.

Challenge: Please give the documented solubility (mole fraction) of `COc1c(C)c2c(c(O)c1C/C=C(\C)CCC(=O)OCCN1CCOCC1)C(=O)OC2`
Response given: 0.0271

###

details: in ethylene glycol, 318.2 K
observation.type: solubility (mole fraction)
I only need the number, thanks.

Challenge: Please give the documented solubility (mole fraction) of `COc1c(C)c2c(c(O)c1C/C=C(\C)CCC(=O)OCCN1CCOCC1)C(=O)OC2`
Response given: 0.0014
